Target: hS1P4 (Homo sapiens, UniProt O95977)
Construct: expressed in transfected cells; host or cells: CHO
Sequence (O95977 1-384): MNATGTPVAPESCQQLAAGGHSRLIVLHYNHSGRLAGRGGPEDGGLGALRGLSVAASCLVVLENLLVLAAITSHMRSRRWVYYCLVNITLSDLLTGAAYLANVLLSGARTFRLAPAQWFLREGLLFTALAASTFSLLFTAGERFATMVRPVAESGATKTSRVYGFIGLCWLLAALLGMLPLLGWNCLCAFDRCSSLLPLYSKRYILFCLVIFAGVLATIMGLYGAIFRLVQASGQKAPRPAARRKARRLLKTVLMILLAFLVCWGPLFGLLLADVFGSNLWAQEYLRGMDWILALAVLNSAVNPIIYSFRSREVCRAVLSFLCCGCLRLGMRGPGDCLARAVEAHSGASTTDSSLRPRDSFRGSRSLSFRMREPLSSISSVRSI
Experiment: Tango β-arrestin recruitment luciferase assay, Tango-hS1P4-CHO
Format: cell-based
Details: β-arrestin recruitment; 20 h drug treatment; top 45 µM, 9 serial 5-fold dilutions; positive control 25 µM BAF-312; read-out: Tango-hS1P4-CHO EC50
Measured Endpoint: EC50 (nM)

Answered examples (3):
- CCc1cc(/C(C)=N/OCc2ccc(-c3ccc(F)nc3)c(C)c2)ccc1CN1CC[C@H](C(=O)O)C1 [Compound 53]: 7.02
- CCc1cc(/C(C)=N/OCc2ccc(C3CCCC3)c(C)c2)ccc1CN1CC[C@H](C(=O)O)C1 [Compound 62]: 3.31
- CCc1cc(/C(C)=N/OCc2ccc(OC(C)C)c(C#N)c2)ccc1CN1CC(C(=O)O)C1 [Compound 16]: 3320

P = COc1cc(/C(C)=N/OCc2ccc(C3CCCCC3)c(C(F)(F)F)c2)ccc1CN1CC(C(=O)O)C1 [Compound 27]
Q = CCc1cc(/C(C)=N/OCc2ccc(-c3cccs3)c(C)c2)ccc1CN1CC[C@H](C(=O)O)C1 [Compound 72]
[Q] Parameter metric = EC50. Return the lower-valued option from P and Q . State your choice using its label.
[A] Q

a = CCc1cc(/C(C)=N/OCc2ccc(-c3cnc(F)cn3)cc2F)ccc1CN1CC[C@H](C(=O)O)C1 [Compound 87]
b = CCc1cc(/C(C)=N/OCc2ccc(-c3ccc(F)cc3)c(C)c2)ccc1CN1CC[C@H](C(=O)O)C1 [Compound 34]
c = CCc1cc(/C(C)=N/OCc2ccc(-c3ccoc3)c(C)c2)ccc1CN1CC[C@H](C(=O)O)C1 [Compound 36]
d = CCc1cc(/C(C)=N/OCc2ccc(-c3ccsc3)c(F)c2)ccc1CN1CC[C@H](C(=O)O)C1 [Compound 85]
[Q] Rank the 4 compounds: largest EC50 first, smallest last. Returns: the labels arranged in the requested order.
[A] a, d, b, c
(a: 17.4 nM, d: 8.52 nM, b: 2.4 nM, c: 1.67 nM)

I = CCc1cc(/C(C)=N/OCc2ccc(-c3cnc(O)cn3)c(C)c2)ccc1CN1CC[C@H](C(=O)O)C1 [Compound 5]
II = CCc1cc(/C(C)=N/OCc2ccc(C3CCCCC3)cc2)ccc1CN1CC(C(=O)O)C1 [Compound 3]
[Q] Parameter metric = EC50. Return the lower-valued option from I and II . State your choice using its label.
[A] I
(I: 4.22 nM, II: 2160 nM)

###

Assay: Pharmacokinetic property testing in rats
Format: in vivo, SD rats
Settings: Sprague-Dawley, rat, in vivo; IV (1 mg/kg); male SD rats
Measured Endpoint: AUC(0-t) (ng·h/mL)

• CCc1cc(/C(C)=N/OCc2ccc(-c3ccccc3)c(C)c2)ccc1CN1CC[C@H](C(=O)O)C1 [Compound 30] = 824

1 = CCc1cc(/C(C)=N/OCc2ccc(-c3cnc(F)cn3)c(C)c2)ccc1CN1CC[C@H](C(=O)O)C1 [Compound 67]
2 = CCc1cc(/C(C)=N/OCc2ccc(-c3ccccc3)c(C)c2)ccc1CN1CC(C(=O)O)C1 [Compound 22]
[Q] Parameter metric = AUC(0-t). Return the lower-valued option from 1 and 2 . State your choice using its label.
[A] 2
(2: 476 ng·h/mL, 1: 836 ng·h/mL)

###

Molecular target: hS1P1 (Homo sapiens, UniProt P21453)
Construct: expressed in transfected cells; host or cells: CHO
Sequence (P21453 whole entry): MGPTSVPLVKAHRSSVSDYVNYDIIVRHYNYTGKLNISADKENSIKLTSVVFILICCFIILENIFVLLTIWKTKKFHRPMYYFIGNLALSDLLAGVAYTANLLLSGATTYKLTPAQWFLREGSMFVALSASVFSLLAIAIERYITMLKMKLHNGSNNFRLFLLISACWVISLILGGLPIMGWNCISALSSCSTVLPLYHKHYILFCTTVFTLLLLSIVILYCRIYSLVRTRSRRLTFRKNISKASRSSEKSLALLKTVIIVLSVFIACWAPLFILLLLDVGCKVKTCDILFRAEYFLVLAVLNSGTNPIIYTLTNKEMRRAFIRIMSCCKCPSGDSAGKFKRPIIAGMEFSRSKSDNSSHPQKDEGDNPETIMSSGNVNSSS
Experiment: Tango β-arrestin recruitment luciferase assay, Tango-hS1P1-CHO
Format: cell-based
Settings: β-arrestin recruitment; 20 h drug treatment; top 45 µM, 9 serial 5-fold dilutions; positive control 1 µM BAF-312; read-out: Tango-hS1P1-CHO EC50
Source text: The Tango assay detects ligand-dependent GPCR activity through the interaction between β-arrestin and GPCRs. […] The NTEV fragment and the tetracycline transactivator (tTA), an artificial transcription factor, are fused at the C-terminus of the GPCR, while the CTEV fragment is fused to human β-arrestin 2. […] The released tTA initiates tTA-dependent luciferase transcription, and compound activity is ultimately determined by measuring luminescence intensity. […]
pEC50: −log10 of the molar value.
Measured Endpoint: pEC50

Answered examples (2):
- CCc1cc(/C(C)=N/OCc2ccc(-c3ccc(F)cc3)c(C)c2)ccc1CN1CC[C@H](C(=O)O)C1 [Compound 34]: 7.06
- CCc1cc(/C(C)=N/OCc2ccc(C3CCCCC3)cc2)ccc1CN1CC(C(=O)O)C1 [Compound 3]: 6.24

1 = CCc1cc(/C(C)=N/OCc2ccc3ccccc3c2)ccc1CN1CC(C(=O)O)C1 [Compound 15]
2 = CCc1cc(/C(C)=N/OCc2ccc(-c3ccoc3)c(C)c2)ccc1CN1CC[C@H](C(=O)O)C1 [Compound 36]
[Q] Could you point out whether the larger pEC50 belongs to 1 or to 2 ? State your choice using its label.
[A] 2

###

Biological target: hS1P1 (Homo sapiens)
Construct: expressed in transfected cells; host or cells: CHO
Assay: Tango β-arrestin recruitment luciferase assay, Tango-hS1P1-CHO
Type: cell-based
Conditions: β-arrestin recruitment; 20 h drug treatment; top 45 µM, 9 serial 5-fold dilutions; positive control 1 µM BAF-312; read-out: Tango-hS1P1-CHO EC50
pEC50: −log10 of the molar value.
Measured Endpoint: pEC50

Answered examples (2):
* CCc1cc(/C(C)=N/OCc2ccc(-c3ccccc3)c(C)c2)ccc1CN1CC[C@@H](C(=O)O)C1 | 6.77
* CCc1cc(/C(C)=N/OCc2ccc(-c3ccccc3)c(C)c2)ccc1CNCCC(=O)O | 6.89

a = CCc1cc(/C(C)=N/OCc2ccc(-c3ccccc3)cc2)ccc1CN1CC(C(=O)O)C1
b = CCc1cc(/C(C)=N/OCc2ccc(-c3ccccc3)c(C)c2)ccc1CN1CCCC(C(=O)O)C1 (centres unmarked)
[Q] Could you point out whether the larger pEC50 belongs to a or to b ? State your choice using its label.
[A] b
(b: 6.34, a: 6.11)

###

Each record here notes measured pEC50.
Target: S1PR3 (Homo sapiens)
Construct: expressed in transfected cells
Sequence (Q99500 whole entry, species assumed): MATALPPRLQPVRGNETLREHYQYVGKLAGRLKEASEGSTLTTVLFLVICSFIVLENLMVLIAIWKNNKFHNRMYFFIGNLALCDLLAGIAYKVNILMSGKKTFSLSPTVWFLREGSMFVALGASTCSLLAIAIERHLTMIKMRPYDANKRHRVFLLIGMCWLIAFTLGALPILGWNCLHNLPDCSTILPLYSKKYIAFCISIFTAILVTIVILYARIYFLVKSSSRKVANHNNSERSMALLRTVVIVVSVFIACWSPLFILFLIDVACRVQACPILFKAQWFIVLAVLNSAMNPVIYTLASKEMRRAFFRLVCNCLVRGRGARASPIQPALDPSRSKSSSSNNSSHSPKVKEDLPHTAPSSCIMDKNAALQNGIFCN
Assay: β-arrestin recruitment, PathHunter CHO-K1-S1PR3 cells
Type: cell-based
Settings: mean ± SD, read-out: EC50
pEC50: −log10 of the molar value.

Answered examples (2):
- CCCCCCCCCCCCC/C=C/[C@@H](O)[C@@H](N)COP(=O)(O)O [Compound S1P, Sphingosine-1-phosphate, reference compound]: 7.69
- CCc1cc(/C(C)=N/OCc2ccc(-c3cnc(F)cn3)c(C)c2)ccc1CN1CC[C@H](C(=O)O)C1: < 5.00

For the next question, use this compound.
[Q] State the recorded pEC50 for this entry: CCc1cc(/C(C)=N/OCc2ccc(-c3ccccc3)c(C)c2)ccc1CN1CC[C@H](C(=O)O)C1
[A] < 5.00

###

Each record here notes measured pEC50.
Biological target: S1PR2 (Homo sapiens)
Construct: expressed in transfected cells
Sequence (O95136 whole entry, species assumed): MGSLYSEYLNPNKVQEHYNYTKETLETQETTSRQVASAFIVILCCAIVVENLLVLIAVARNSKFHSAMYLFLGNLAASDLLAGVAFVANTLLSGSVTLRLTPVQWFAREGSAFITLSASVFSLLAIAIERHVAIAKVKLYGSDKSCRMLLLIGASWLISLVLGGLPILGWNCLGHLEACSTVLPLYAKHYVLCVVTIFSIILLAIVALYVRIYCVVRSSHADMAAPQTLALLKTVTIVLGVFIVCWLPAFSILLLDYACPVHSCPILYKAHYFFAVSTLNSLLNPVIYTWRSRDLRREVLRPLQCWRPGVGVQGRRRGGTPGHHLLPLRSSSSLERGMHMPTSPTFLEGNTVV
Experiment: FLIPR assay, S1PR2-CHO cell line
Type: cell-based
Conditions: mean ± SD, read-out: EC50
pEC50: −log10 of the molar value.

[Q] State the recorded pEC50 for this entry: CCc1cc(/C(C)=N/OCc2ccc(-c3ccccc3)c(C)c2)ccc1CN1CC[C@H](C(=O)O)C1 [Compound 30]
[A] < 5.00

[Q] State the recorded pEC50 for this entry: CCc1cc(/C(C)=N/OCc2ccc(-c3cnc(F)cn3)c(C)c2)ccc1CN1CC[C@H](C(=O)O)C1 [Compound 67]
[A] < 5.00

###

Assay: Pharmacokinetic property testing in rats
Format: in vivo, SD rats
Conditions: Sprague-Dawley, rat, in vivo; PO (10 mg/kg); male SD rats
Measured Endpoint: AUC(0-t) (ng·h/mL)

- CCc1cc(/C(C)=N/OCc2ccc(-c3ccccc3)c(C)c2)ccc1CN1CC[C@H](C(=O)O)C1: 9860

A = CCc1cc(/C(C)=N/OCc2ccc(-c3ccccc3)c(C)c2)ccc1CN1CC(C(=O)O)C1
B = CCc1cc(/C(C)=N/OCc2ccc(-c3cnc(F)cn3)c(C)c2)ccc1CN1CC[C@H](C(=O)O)C1
[Q] Could you point out whether the larger AUC(0-t) belongs to A or to B ? State your choice using its label.
[A] B
